Values compiled from patent US20240025949A1.

target: rat angiotensin 2 type 1 receptor (rat) (UniProt P25095); assay: cell-based or functional assay
Sequence (P25095 whole entry): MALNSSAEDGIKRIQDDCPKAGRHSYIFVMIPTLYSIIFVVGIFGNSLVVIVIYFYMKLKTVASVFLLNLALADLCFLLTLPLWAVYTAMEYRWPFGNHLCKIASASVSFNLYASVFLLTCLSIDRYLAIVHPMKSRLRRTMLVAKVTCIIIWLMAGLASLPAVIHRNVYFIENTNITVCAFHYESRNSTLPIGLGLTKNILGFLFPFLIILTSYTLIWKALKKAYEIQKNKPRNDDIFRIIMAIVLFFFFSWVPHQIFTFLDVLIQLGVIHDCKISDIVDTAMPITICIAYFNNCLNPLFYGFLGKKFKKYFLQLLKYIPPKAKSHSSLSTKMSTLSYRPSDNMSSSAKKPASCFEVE
Where no end group is shown, it is not given here.
assay-endpoint: b-arrestin2 Max (%)

Past entries and their recorded results:
binder | reading
DRVYYHP (N-methyl; C-terminal amide) [SEQ ID NO: 61 (N-Me-Asp-Arg-Val-Tyr-Tyr-His-Pro-NH2)] | 60.4
RVYYHPI (N-terminal Sar; C-terminal acid) [SEQ ID NO: 14 (Sar-Arg-Val-Tyr-Tyr-His-Pro-Ile-OH)] | 79
RVYYHP (N-terminal Sar; C-terminal amide) [SEQ ID NO: 26 (Sar-Arg-Val-Tyr-Tyr-His-Pro-NH2)] | 77.3
DRVYFHP-NH2 [SEQ ID NO: 63 (Asp-Arg-Val-Tyr-Phe-His-Pro-NH2)] | 50.1
RVYHHPA (N-terminal Sar; C-terminal acid) [SEQ ID NO: 22 (Sar-Arg-Val-Tyr-His-His-Pro-Ala-OH)] | 74.3

a = RVYIHP (N-terminal Sar; C-terminal norvaline) [SEQ ID NO: 35 (Sar-Arg-Val-Tyr-Ile-His-Pro-NVA-OH)]
b = ERVYYHP-NH2 [SEQ ID NO: 59 (Glu-Arg-Val-Tyr-Tyr-His-Pro-NH2)]
[ask] Would you let me know which has the greater b-arrestin2 Max value, a or b ? Respond using the label that marks the chosen record.
[reply] a
